Tested on: Jurkat
run-description: MTT assay, Jurkat cells
Assay type: cell-based
measurement-conditions: Homo sapiens, 3 μM, 24 h, read-out: Viability rate
measurement-label: viability at 3 µM (%)

molecule: Cc1ccc(NC(=O)c2ccc(CN3CCN(C)CC3)cc2)cc1Nc1nccc(-c2cccnc2)n1 [imatinib, reference compound]
measurement-label: viability at 3 µM
val: 61.3
--
molecule: Cc1ccc(NC(=O)c2ccc(CN3CCN(c4ncccn4)CC3)cc2)cc1Nc1cnccn1
measurement-label: viability at 3 µM
val: 75.5
--
molecule: COc1ccc(CN2CCN(Cc3ccc(C(=O)Nc4ccc(C)c(Nc5cc(C)ccn5)c4)cc3)CC2)c(OC)c1OC
measurement-label: viability at 3 µM
val: 69.4
--
molecule: Cc1ccnc(Nc2cc(NC(=O)c3ccc(CN4CCN(c5ncccn5)CC4)cc3)ccc2C)n1
measurement-label: viability at 3 µM
val: 90.1
--
molecule: Cc1ccnc(Nc2cc(NC(=O)c3ccc(CN4CCOCC4)cc3)ccc2C)n1
measurement-label: viability at 3 µM
val: 76.8
--
molecule: COc1ccc(CN2CCN(Cc3ccc(C(=O)Nc4ccc(C)c(Nc5nccc(C)n5)c4)cc3)CC2)c(OC)c1OC
measurement-label: viability at 3 µM
val: 79.1
--
molecule: Cc1ccnc(Nc2cc(NC(=O)c3ccc(CN4CCOCC4)cc3)ccc2C)c1
measurement-label: viability at 3 µM
val: 81.7
